Biological target: T1, 4H2604-AA
T1 chain: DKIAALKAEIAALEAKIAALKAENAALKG
Test: two-hybrid library CCmax;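 further: natural log of median RNA to DNA barcode read ratio; higher means stronger binding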
Settings: mean of both orientations
measured-endpoint: interaction score

Guide cases for interaction score, answers given:
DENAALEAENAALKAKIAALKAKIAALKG [4H1262-AA] = -0.779
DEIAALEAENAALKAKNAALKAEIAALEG [4H249-AA] = -1.73
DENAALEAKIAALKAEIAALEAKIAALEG [4H1349-AA] = 1.42

(A) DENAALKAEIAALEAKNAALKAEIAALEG [4H1593-AA]
(B) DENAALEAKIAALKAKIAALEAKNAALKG [4H1384-AA]
Two entries are listed, A and B . Which one carries the higher interaction score? Returns: label corresponding to the selected item.
B
(B: 1.45, A: 0.383)

(P) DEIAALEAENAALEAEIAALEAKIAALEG [4H133-AA]
(Q) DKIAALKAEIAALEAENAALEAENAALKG [4H2580-AA]
Please indicate which item has the smaller measured interaction score: P versus Q Returns: label corresponding to the selected item.
P
